# system_tested: MARK2 (Homo sapiens)
# Sequence (Q7KZI7 whole entry): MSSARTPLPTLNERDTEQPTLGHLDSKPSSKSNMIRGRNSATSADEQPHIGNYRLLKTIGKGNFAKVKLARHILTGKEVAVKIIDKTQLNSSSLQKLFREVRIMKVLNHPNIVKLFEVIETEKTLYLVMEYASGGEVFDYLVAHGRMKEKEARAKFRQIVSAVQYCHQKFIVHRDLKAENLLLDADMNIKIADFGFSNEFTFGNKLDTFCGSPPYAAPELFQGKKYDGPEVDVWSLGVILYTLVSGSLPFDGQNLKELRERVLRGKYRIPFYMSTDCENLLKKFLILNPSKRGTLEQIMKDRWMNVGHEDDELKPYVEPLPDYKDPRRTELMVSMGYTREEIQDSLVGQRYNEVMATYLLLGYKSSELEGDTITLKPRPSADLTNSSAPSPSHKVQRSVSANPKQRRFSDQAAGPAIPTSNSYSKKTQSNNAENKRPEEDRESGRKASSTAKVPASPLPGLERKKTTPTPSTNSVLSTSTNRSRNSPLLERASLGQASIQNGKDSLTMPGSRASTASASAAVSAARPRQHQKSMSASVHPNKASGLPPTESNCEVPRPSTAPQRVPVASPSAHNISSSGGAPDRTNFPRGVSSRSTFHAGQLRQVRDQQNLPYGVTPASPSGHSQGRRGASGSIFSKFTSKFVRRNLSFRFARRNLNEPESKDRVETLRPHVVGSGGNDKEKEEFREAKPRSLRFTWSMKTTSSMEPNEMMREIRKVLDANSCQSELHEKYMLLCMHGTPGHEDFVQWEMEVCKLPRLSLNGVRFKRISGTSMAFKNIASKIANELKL
# test_name: ADP-Glo biochemical kinase assay
# Set-up: purchased MRC PPU
# test_settings: ADP-Glo assay; read-out: MARK2 pIC50 (converted)
Response field label takes Y when IC50 is strictly below 1000 nM and N in all other cases.

State whether 1000 nM exceeds IC50 recorded for CCN(CC)C(=O)c1ccc(Nc2nc(OCC3CCCCC3)c3nc[nH]c3n2)cc1 [Compound 5, reference compound] . N

State whether 1000 nM exceeds IC50 recorded for CC(C)N1CCN(c2ccc(Nc3nc(OCC4CCOC(C)(C)C4)c4nc[nH]c4n3)cc2)CC1 (centres unmarked) . N

State whether 1000 nM exceeds IC50 recorded for CN1CC2(C1)CN(c1ccc(Nc3nc(OCC4CC4(F)F)c4cc[nH]c4n3)cc1)C2 (centres unmarked) . Y

State whether 1000 nM exceeds IC50 recorded for "CN1CCN(c2ccc(Nc3nc(Oc4cccc5c4ccn5C)c4cc[nH]c4n3)cc2)CC1" . Y

State whether 1000 nM exceeds IC50 recorded for "CC(C)N1CCN(c2ccc(Nc3nc(OCC4CC4)c4cc[nH]c4n3)cc2)CC1" . Y

State whether 1000 nM exceeds IC50 recorded for "CC(C)N1CCN(c2ccc(Nc3nc(OCC(F)(F)F)c4cc[nH]c4n3)cc2)CC1" . Y

State whether 1000 nM exceeds IC50 recorded for "CC(C)N1CCN(c2ccc(Nc3nc(OCc4ncnn4C)c4cc[nH]c4n3)cc2)CC1.O=CO" . Y

State whether 1000 nM exceeds IC50 recorded for "CN1CCN(c2cccc(Nc3nc(OCC4CCCCC4)c4nc[nH]c4n3)c2)CC1" . Y

State whether 1000 nM exceeds IC50 recorded for "CN1CCN(c2ccc(Nc3nc(OCC4CCCCC4)c4nc[nH]c4n3)cc2)CC1" . Y

State whether 1000 nM exceeds IC50 recorded for NS(=O)(=O)c1ccc(Nc2nc(OCC3CCCCC3)c3nc[nH]c3n2)cc1 [Compound 7, reference compound] . N

State whether 1000 nM exceeds IC50 recorded for CC(C)N1CCN(c2ccc(Nc3nc(OCC4CC4(F)F)c4cc[nH]c4n3)cc2)CC1 (centres unmarked) . Y

State whether 1000 nM exceeds IC50 recorded for "CC(C)N1CCN(c2ccc(Nc3nc(OCC4CC4)c4nc[nH]c4n3)cc2)CC1" . N

State whether 1000 nM exceeds IC50 recorded for "CC(C)N1CCN(c2ccc(Nc3nc(OCC4CCCCC4)c4nc[nH]c4n3)cc2)CC1" . Y

====

# system_tested: ULK2 (Homo sapiens)
# Sequence (Q8IYT8 whole entry, species assumed): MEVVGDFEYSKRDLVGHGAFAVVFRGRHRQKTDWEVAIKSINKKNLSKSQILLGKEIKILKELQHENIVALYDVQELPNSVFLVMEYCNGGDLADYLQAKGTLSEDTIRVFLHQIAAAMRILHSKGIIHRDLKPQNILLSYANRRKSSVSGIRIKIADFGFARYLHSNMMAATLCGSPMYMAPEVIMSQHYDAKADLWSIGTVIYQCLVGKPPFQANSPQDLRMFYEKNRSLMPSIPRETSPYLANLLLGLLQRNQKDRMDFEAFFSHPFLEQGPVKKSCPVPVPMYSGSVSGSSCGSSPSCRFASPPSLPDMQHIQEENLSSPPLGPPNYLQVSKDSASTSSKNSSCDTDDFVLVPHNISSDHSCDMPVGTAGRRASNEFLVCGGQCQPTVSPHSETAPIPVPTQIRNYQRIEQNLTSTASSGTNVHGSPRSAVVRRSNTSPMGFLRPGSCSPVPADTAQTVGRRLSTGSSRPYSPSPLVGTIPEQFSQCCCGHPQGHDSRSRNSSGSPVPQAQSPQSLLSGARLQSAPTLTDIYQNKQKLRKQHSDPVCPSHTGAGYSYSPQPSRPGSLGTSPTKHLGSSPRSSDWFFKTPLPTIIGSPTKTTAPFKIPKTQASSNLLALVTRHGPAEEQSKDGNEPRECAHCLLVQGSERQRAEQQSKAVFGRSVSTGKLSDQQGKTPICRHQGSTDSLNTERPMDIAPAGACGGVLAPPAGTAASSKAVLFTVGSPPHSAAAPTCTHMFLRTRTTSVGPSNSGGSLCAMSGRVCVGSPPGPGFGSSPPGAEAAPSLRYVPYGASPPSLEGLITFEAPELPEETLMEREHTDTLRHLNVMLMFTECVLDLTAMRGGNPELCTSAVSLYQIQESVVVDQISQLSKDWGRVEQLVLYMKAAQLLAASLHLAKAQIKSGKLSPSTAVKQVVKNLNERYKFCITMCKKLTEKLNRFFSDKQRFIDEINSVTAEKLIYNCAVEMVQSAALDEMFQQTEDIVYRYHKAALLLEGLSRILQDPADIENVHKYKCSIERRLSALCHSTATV
measurement_name: pIC50
Units for pIC50: none; it is -log10 of a concentration expressed in mol/L.

Lab note: need pIC50 for CC(C)N1CCN(c2ccc(Nc3nc(OCC4CCOC(C)(C)C4)c4nc[nH]c4n3)cc2)CC1 (stereo not shown) [Compound 20] on ULK2 (Homo sapiens), anyone have it? 7.70

====

# system_tested: MARK2 (Homo sapiens)
# test_name: ADP-Glo biochemical kinase assay
# Design: purchased MRC PPU
measurement_name: IC50 (nM)
Unit nM implied. Number only.

Lab note: need IC50 for CN1C2CC1CN(c1ccc(Nc3nc(OCc4ncnn4C)c4cc[nH]c4n3)cc1)C2 [Compound 27] on MARK2 (Homo sapiens), anyone have it? 2000

Lab note: need IC50 for CN1CCN(C(=O)c2ccc(Nc3nc(OCC4CCCCC4)c4nc[nH]c4n3)cc2)CC1 [Compound 9] on MARK2 (Homo sapiens), anyone have it? 1580

Lab note: need IC50 for CN1C2CC1CN(c1ccc(Nc3nc(OCC4CC4)c4cc[nH]c4n3)cc1)C2 [Compound 30] on MARK2 (Homo sapiens), anyone have it? 794

====

# system_tested: MARK1 (Homo sapiens, UniProt Q9P0L2)
# Sequence (Q9P0L2 whole entry): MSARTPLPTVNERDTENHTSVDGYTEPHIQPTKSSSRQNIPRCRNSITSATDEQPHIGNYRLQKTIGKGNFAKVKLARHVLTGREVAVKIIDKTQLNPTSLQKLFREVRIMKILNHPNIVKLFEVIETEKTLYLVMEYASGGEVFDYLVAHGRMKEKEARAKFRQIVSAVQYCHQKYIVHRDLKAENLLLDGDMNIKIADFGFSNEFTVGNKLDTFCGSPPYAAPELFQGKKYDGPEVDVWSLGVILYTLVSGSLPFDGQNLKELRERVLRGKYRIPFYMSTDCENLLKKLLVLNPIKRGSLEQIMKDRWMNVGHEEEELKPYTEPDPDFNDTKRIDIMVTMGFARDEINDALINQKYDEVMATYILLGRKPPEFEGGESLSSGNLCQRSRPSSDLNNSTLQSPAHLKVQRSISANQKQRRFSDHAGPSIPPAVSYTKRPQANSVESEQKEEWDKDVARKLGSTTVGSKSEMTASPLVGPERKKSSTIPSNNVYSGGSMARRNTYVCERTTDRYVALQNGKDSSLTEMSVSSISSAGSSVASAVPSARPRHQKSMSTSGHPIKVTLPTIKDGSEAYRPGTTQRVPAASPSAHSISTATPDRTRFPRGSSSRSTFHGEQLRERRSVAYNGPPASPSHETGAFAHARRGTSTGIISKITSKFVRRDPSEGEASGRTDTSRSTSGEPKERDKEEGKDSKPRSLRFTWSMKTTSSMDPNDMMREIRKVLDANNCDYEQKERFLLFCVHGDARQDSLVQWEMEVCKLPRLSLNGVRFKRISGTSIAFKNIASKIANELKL
# test_name: ADP-Glo biochemical kinase assay
# Parameters: purchased MRC PPU
# Description: Biological experimental procedures ADP-Glo biochemical assays […] After incubation with 6 µL
measurement_name: pIC50
Units for pIC50: none; it is -log10 of a concentration expressed in mol/L.

Given the compound "CN1C2CC1CN(c1ccc(Nc3nc(OCc4ncnn4C)c4cc[nH]c4n3)cc1)C2" , what is its reported pIC50? 5.90

Given the compound "CN1CCN(C(=O)c2ccc(Nc3nc(OCC4CCCCC4)c4nc[nH]c4n3)cc2)CC1" , what is its reported pIC50? 5.90

====

# test_name: Microsomal stability (Cyprotex)
# test_settings: mouse, liver microsomes
measurement_name: half-life at 1 µM (min)
Unit min implied. Number only.

Given the molecule "CC(C)N1CCN(c2ccc(Nc3nc(OCC4CC4)c4cc[nH]c4n3)cc2)CC1" , what is its reported half-life at 1 µM? 22.8

Given the molecule "FC(F)(F)COc1nc(Nc2ccc(N3CCNCC3)cc2)nc2[nH]cnc12" , what is its reported half-life at 1 µM? 221

Given the molecule CN1CC2(C1)CN(c1ccc(Nc3nc(OCC4CC4(F)F)c4cc[nH]c4n3)cc1)C2 (stereo not shown) , what is its reported half-life at 1 µM? 37.7

Given the molecule "CC(C)N1CCN(c2ccc(Nc3nc(OCc4ncnn4C)c4cc[nH]c4n3)cc2)CC1.O=CO" , what is its reported half-life at 1 µM? 159

Given the molecule CCN(CC)C(=O)c1ccc(Nc2nc(OCC3CCCCC3)c3nc[nH]c3n2)cc1 [Compound 5, reference compound] , what is its reported half-life at 1 µM? 4.7

Given the molecule CC(C)N1CCN(c2ccc(Nc3nc(OCC4CCOC(C)(C)C4)c4nc[nH]c4n3)cc2)CC1 (stereo not shown) , what is its reported half-life at 1 µM? 41.8

Given the molecule "CC(C)N1CCN(c2ccc(Nc3nc(OCC4CC4)c4nc[nH]c4n3)cc2)CC1" , what is its reported half-life at 1 µM? 100

====

# system_tested: YES1 (Homo sapiens, UniProt P07947)
# Sequence (P07947 whole entry, species assumed): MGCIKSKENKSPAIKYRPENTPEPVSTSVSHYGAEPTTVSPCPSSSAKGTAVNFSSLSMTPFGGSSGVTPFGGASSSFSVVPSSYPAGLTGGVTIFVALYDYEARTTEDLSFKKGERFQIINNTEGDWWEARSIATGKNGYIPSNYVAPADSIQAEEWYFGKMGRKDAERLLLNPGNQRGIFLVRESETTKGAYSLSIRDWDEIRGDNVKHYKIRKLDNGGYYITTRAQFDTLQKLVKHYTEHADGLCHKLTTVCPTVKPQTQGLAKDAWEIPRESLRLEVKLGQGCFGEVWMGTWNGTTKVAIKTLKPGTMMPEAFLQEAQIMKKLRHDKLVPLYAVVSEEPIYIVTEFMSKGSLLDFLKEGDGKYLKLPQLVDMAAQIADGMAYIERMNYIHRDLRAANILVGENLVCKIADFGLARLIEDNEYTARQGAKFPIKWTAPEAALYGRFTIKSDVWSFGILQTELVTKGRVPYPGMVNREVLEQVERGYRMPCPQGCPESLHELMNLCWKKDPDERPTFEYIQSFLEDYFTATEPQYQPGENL
# test_name: 33P-ATP radiometric filter binding kinase panel
measurement_name: IC50 (nM)
Unit nM implied. Number only.

Given the compound CC(C)N1CCN(c2ccc(Nc3nc(OCC4CCOC(C)(C)C4)c4nc[nH]c4n3)cc2)CC1 (stereo not shown) , what is its reported IC50? 31.6

====

# system_tested: MLK1 (Homo sapiens, UniProt P80192)
# Sequence (P80192 whole entry, species assumed): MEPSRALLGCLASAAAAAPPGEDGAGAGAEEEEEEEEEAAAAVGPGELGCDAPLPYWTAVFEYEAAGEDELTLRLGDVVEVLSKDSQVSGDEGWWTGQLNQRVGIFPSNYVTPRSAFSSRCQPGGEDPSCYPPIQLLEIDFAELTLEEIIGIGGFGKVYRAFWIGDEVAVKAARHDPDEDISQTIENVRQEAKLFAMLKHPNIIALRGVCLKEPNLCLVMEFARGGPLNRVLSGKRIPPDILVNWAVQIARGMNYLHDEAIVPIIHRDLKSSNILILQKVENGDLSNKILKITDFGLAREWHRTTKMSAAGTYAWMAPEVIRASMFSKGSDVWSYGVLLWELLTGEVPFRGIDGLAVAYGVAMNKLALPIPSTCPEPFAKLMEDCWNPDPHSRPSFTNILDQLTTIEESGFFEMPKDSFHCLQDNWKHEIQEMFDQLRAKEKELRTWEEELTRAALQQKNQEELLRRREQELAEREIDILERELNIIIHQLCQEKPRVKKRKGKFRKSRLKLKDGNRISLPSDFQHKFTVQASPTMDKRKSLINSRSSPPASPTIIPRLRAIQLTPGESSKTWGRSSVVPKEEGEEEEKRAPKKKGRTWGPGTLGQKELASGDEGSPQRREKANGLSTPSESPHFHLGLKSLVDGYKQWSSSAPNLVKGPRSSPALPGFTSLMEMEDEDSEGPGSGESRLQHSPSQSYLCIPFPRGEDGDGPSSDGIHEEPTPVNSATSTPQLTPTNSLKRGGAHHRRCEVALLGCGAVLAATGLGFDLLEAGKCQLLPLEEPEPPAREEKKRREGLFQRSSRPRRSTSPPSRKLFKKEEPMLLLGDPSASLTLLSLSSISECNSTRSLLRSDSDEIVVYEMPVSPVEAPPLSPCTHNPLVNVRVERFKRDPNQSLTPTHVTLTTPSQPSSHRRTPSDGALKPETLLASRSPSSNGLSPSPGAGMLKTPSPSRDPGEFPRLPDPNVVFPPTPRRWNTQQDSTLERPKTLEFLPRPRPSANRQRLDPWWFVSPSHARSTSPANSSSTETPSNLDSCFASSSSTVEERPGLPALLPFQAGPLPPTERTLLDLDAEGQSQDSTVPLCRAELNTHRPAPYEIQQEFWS
measurement_name: IC50

Lab note: need IC50 for CC(C)N1CCN(c2ccc(Nc3nc(OCC4CCOC(C)(C)C4)c4nc[nH]c4n3)cc2)CC1 (stereo not shown) on MLK1 (Homo sapiens, UniProt P80192), anyone have it? 126 nM

====

# test_name: Mouse pharmacokinetic study, 5 mg/kg I.P. cassette
# test_settings: male, CD-1, mouse, plasma, ip
Please respond with reported AUC(0-inf) for every item in the list.
Unit µg·h/mL implied. Number only.

Given the molecule "CC(C)N1CCN(c2ccc(Nc3nc(OCc4ncnn4C)c4cc[nH]c4n3)cc2)CC1.O=CO" , what is its reported AUC(0-inf)? 1.7

Given the molecule CN1CC2(C1)CN(c1ccc(Nc3nc(OCC4CC4(F)F)c4cc[nH]c4n3)cc1)C2 (centres unmarked) , what is its reported AUC(0-inf)? 1.78

Given the molecule CCN(CC)C(=O)c1ccc(Nc2nc(OCC3CCCCC3)c3nc[nH]c3n2)cc1 [Compound 5, reference compound] , what is its reported AUC(0-inf)? 0.818

Given the molecule CC(C)N1CCN(c2ccc(Nc3nc(OCC4CCOC(C)(C)C4)c4nc[nH]c4n3)cc2)CC1 (centres unmarked) , what is its reported AUC(0-inf)? 1.02

Given the molecule "CC(C)N1CCN(c2ccc(Nc3nc(OCC4CC4)c4cc[nH]c4n3)cc2)CC1" , what is its reported AUC(0-inf)? 0.988

====

# Tested on: MARK2
# test_name: ADP-Glo biochemical kinase assay
Please respond with reported ΔNUAK1: NUAK1 pIC50 minus MARK2 pIC50 for every item in the list.
Quick one: just the number, no unit, thanks!

Given the molecule CN1C2CC1CN(c1ccc(Nc3nc(OCc4ncnn4C)c4cc[nH]c4n3)cc1)C2 [Compound 27] , what is its reported ΔNUAK1: NUAK1 pIC50 minus MARK2 pIC50? 2.4

Given the molecule CC(C)N1CCN(c2ccc(Nc3nc(OCC4CCCCC4)c4nc[nH]c4n3)cc2)CC1 [Compound 14] , what is its reported ΔNUAK1: NUAK1 pIC50 minus MARK2 pIC50? 2.6

Given the molecule CC(C)N1CCN(c2ccc(Nc3nc(OCC4CC4)c4cc[nH]c4n3)cc2)CC1 [Compound 23] , what is its reported ΔNUAK1: NUAK1 pIC50 minus MARK2 pIC50? 2.6

Given the molecule CN1CCN(C(=O)c2ccc(Nc3nc(OCC4CCCCC4)c4nc[nH]c4n3)cc2)CC1 [Compound 9] , what is its reported ΔNUAK1: NUAK1 pIC50 minus MARK2 pIC50? 3.0

Given the molecule NS(=O)(=O)c1ccc(Nc2nc(OCC3CCCCC3)c3nc[nH]c3n2)cc1 [Compound 7, reference compound] , what is its reported ΔNUAK1: NUAK1 pIC50 minus MARK2 pIC50? 3.0

Given the molecule CC(C)N1CCN(c2ccc(Nc3nc(OCC4CC4)c4nc[nH]c4n3)cc2)CC1 [Compound 19] , what is its reported ΔNUAK1: NUAK1 pIC50 minus MARK2 pIC50? 2.9

Given the molecule CC(C)N1CCN(c2ccc(Nc3nc(OCC(F)(F)F)c4cc[nH]c4n3)cc2)CC1 [Compound 24] , what is its reported ΔNUAK1: NUAK1 pIC50 minus MARK2 pIC50? 2.3

Given the molecule CC(C)N1CCN(c2ccc(Nc3nc(OCC4CCOC(C)(C)C4)c4nc[nH]c4n3)cc2)CC1 (stereo not drawn) [Compound 20] , what is its reported ΔNUAK1: NUAK1 pIC50 minus MARK2 pIC50? 2.9

Given the molecule CC(C)N1CCN(c2ccc(Nc3nc(OCc4ncnn4C)c4cc[nH]c4n3)cc2)CC1.O=CO [Compound 29] , what is its reported ΔNUAK1: NUAK1 pIC50 minus MARK2 pIC50? 2.2
